Target: Recombinant wild type LRRK2 protein (Homo sapiens)
Construct: purchased Life Technologies PR8604B
Experiment: LanthaScreen Kinase Activity Assay (TR-FRET), wild type LRRK2
Format: biochemical
Settings: class symbols; 25 μM ATP, 400 nM LRRKtide, 2.9 nM kinase, 60 min at room temperature; read-out: LRRK2 WT IC50
TEST_READOUT: IC50

Sample records with IC50:
Cc1oncc1-c1n[nH]c2ccc(NC(=O)c3c(F)cc4c(cnn4C)c3F)cc12 [Example 29] : 100 to 1000 nM
Cc1cc2nncn2c(C)c1C(=O)Nc1ccc2[nH]nc(-c3ccoc3)c2c1 [Example 153] : ≤ 100 nM
Cn1ncc2c(F)c(C(=O)Nc3ccc4[nH]nc(-c5ncco5)c4c3)c(F)cc21 [Example 138] : 100 to 1000 nM
Cc1nc2ccc(C(=O)Nc3ccc4[nH]nc(-c5ccoc5)c4c3)cc2o1 [Example 134] : 100 to 1000 nM
CN(C)c1ccc(-c2n[nH]c3ccc(NC(=O)c4c(F)cc5c(cnn5C)c4F)cc23)cc1 [Example 87] : ≤ 100 nM
Cn1ncc2c(F)c(C(=O)Nc3ccc4[nH]nc(-c5ccoc5)c4c3)c(F)cc21 [Example 28] : ≤ 100 nM

stdin: Tell me the measured IC50 of Cc1nn(C)cc1-c1n[nH]c2ccc(NC(=O)c3c(F)cc4c(cnn4C)c3F)cc12 [Example 80] , please.
stdout: ≤ 100 nM

stdin: Please look up its IC50: Cn1ncc2c(F)c(C(=O)Nc3cc4c(-c5ccccc5)n[nH]c4cc3F)c(F)cc21 [Example 143]
stdout: 100 to 1000 nM

----------
Biological target: Recombinant G2019S-LRRK2 protein (Homo sapiens, UniProt Q5S007, G2019S)
Sequence (Q5S007 whole entry G2019S): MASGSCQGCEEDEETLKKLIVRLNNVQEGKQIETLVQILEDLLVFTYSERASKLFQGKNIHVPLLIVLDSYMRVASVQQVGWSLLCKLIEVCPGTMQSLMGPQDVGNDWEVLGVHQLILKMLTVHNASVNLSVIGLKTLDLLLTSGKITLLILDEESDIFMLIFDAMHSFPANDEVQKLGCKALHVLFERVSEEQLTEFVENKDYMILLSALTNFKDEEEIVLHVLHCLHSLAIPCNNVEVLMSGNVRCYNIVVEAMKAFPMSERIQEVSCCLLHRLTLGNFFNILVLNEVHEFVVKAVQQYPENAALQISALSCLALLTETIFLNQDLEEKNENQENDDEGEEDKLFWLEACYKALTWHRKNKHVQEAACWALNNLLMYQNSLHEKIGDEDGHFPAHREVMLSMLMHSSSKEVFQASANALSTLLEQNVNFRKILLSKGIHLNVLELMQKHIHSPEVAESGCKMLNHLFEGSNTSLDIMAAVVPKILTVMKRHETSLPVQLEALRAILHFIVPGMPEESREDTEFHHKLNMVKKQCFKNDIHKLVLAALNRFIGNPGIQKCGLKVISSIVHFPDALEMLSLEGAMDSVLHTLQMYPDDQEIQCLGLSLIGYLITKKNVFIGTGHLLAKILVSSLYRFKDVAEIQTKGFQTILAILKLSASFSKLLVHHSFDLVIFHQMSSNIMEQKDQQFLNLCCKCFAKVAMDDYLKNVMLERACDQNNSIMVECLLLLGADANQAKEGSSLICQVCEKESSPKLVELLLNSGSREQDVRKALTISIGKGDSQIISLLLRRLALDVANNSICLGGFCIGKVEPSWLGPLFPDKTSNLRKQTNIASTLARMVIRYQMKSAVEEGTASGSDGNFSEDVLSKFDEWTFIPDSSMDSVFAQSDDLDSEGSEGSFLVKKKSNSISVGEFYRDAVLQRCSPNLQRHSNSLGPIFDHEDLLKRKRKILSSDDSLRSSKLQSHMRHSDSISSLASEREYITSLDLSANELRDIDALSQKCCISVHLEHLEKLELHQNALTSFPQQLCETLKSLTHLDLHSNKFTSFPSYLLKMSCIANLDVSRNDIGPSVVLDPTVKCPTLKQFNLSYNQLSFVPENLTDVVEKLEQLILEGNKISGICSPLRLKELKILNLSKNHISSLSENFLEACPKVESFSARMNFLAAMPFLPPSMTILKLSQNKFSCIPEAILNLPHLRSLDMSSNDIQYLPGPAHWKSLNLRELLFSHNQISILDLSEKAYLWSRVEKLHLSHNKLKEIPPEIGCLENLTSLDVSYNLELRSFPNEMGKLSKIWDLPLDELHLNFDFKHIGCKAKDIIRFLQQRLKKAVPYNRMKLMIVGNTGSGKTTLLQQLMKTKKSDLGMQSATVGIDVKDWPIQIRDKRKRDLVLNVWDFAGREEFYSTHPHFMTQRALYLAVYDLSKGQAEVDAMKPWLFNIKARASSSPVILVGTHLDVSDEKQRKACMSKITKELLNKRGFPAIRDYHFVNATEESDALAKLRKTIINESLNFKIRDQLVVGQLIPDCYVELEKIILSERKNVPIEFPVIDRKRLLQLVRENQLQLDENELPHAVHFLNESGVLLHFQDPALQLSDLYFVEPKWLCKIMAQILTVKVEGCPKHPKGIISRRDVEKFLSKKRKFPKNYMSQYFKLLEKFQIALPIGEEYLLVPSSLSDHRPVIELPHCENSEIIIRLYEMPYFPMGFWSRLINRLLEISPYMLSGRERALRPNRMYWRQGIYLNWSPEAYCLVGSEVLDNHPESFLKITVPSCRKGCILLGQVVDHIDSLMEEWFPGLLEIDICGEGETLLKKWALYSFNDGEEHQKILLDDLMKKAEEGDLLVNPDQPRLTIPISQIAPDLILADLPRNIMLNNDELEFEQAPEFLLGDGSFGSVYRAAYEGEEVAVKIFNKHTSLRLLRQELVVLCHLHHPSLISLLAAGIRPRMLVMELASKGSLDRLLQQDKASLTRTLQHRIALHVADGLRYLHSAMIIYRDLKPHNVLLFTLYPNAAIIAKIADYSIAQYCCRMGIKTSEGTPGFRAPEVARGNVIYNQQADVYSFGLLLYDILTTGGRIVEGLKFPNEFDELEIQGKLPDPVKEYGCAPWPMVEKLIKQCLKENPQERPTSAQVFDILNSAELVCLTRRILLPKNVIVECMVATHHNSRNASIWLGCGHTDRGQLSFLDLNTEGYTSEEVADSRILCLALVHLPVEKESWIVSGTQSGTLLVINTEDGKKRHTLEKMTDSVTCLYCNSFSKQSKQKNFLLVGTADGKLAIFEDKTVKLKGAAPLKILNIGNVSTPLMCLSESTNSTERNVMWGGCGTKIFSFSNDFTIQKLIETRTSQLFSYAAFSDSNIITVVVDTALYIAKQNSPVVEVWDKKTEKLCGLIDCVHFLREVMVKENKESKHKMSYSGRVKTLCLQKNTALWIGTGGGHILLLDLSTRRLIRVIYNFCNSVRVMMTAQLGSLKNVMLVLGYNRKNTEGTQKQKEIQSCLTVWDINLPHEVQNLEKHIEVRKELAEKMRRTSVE
Test: LanthaScreen Kinase Activity Assay (TR-FRET), G2019S-LRRK2
Details: class symbols; 25 μM ATP, 400 nM LRRKtide, 2.9 nM kinase, 60 min at room temperature
pIC50: −log10 of the molar value.
TEST_READOUT: pIC50

Cn1ncc2nc(C(=O)Nc3ccc4[nH]nc(-c5cnco5)c4c3)ccc21 : ≥ 7.00
Cc1c(C(=O)Nc2ccc3[nH]nc(-c4ccccc4)c3c2)c(Cl)cn2cnnc12 : ≥ 7.00
O=C(Nc1ccc2[nH]nc(-c3ccccc3)c2c1)c1c(Cl)cn2cnnc2c1Cl : ≥ 7.00

stdin: // lookup pIC50 for Cn1ncc2c(F)c(C(=O)Nc3ccc4[nH]nc(C#N)c4c3)c(F)cc21
stdout: ≥ 7.00

stdin: Return reported pIC50; argument: O=C(Nc1ccc2[nH]nc(-c3ccoc3)c2c1)c1ccc2ncsc2c1
stdout: ≥ 7.00

stdin: pIC50 lookup needed for Cc1ccncc1-c1n[nH]c2ccc(NC(=O)c3c(F)cc4c(cnn4C)c3F)cc12 , thanks.
stdout: 5.00 to 6.00

stdin: Return reported pIC50; argument: Cn1ncc2c(F)c(C(=O)Nc3ccc4[nH]nc(-c5ccno5)c4c3)c(F)cc21
stdout: ≥ 7.00

----------
Biological target: Recombinant G2019S-LRRK2 protein (Homo sapiens, UniProt Q5S007, G2019S)
Experiment: LanthaScreen Kinase Activity Assay (TR-FRET), G2019S-LRRK2
Settings: class symbols; 25 μM ATP, 400 nM LRRKtide, 2.9 nM kinase, 60 min at room temperature
TEST_READOUT: IC50

Guide cases for IC50, answers given:
Cc1n[nH]c2ccc(NC(=O)c3ccc4nnc(C)n4c3)cc12 : 1000 to 10000 nM
Cc1c(C(=O)Nc2ccc3[nH]nc(-c4cnco4)c3c2)ncc2c1cnn2C : ≤ 100 nM
Cc1cc2cnnn2c(C)c1C(=O)Nc1ccc2[nH]nc(C)c2c1 : ≤ 100 nM
Cc1cc(-c2n[nH]c3ccc(NC(=O)c4c(F)cc5c(cnn5C)c4F)cc23)c(C)o1 : ≤ 100 nM

Continue with the next compound.
stdin: GET /values?readout=IC50&item= Cn1ncc2c(F)c(C(=O)Nc3ccc4[nH]nc(-c5ccsc5)c4c3)c(F)cc21
stdout: ≤ 100 nM

----------
Attribute: IC50
Target: Recombinant wild type LRRK2 protein (Homo sapiens)
Construct: purchased Life Technologies PR8604B
Test: LanthaScreen Kinase Activity Assay (TR-FRET), wild type LRRK2
Format: biochemical
Settings: class symbols; 25 μM ATP, 400 nM LRRKtide, 2.9 nM kinase, 60 min at room temperature; read-out: LRRK2 WT IC50

stdin: // returns reported IC50 for input COc1ccccc1-c1n[nH]c2ccc(NC(=O)c3c(C)cc4cnnn4c3C)cc12
stdout: 0.1 to 1 µM

stdin: For the compound O=C(Nc1ccc2[nH]nc(-c3ccoc3)c2c1)c1ccc2ncsc2c1 , what IC50 is on record?
stdout: 0.1 to 1 µM

stdin: Fill in: IC50 of Cn1ncc2c(F)c(C(=O)Nc3ccc4[nH]nc(-c5cncnc5)c4c3)c(F)cc21 is ___
stdout: 0.1 to 1 µM

stdin: // query IC50 value for entry Cc1cc2c(C)ncn2c(C)c1C(=O)Nc1ccc2[nH]nc(C)c2c1
stdout: 0.1 to 1 µM

stdin: Bench note: what IC50 did Cc1cn2cnnc2c(C)c1C(=O)Nc1ccc2[nH]nc(C)c2c1 show?
stdout: 1 to 10 µM

stdin: # get_value(readout='IC50', item= Cn1ncc2c(F)c(C(=O)Nc3ccc4[nH]nc(NCc5ccccc5)c4c3)c(F)cc21 )
stdout: 0.1 to 1 µM

stdin: Value lookup for IC50; key = O=C(Nc1ccc2[nH]nc(-c3ccoc3)c2c1)c1nc2ccncc2s1
stdout: ≤ 0.1 µM

stdin: Report IC50 for Cc1cc2c(cnn2C)c(C)c1C(=O)Nc1ccc2[nH]nc(-c3ccoc3)c2c1 please.
stdout: ≤ 0.1 µM

----------
Biological target: Recombinant wild type LRRK2 protein (Homo sapiens, UniProt Q5S007)
Construct: purchased Life Technologies PR8604B
Sequence (Q5S007 whole entry): as the sequence (Q5S007 whole entry G2019S) above, with S2019G counted along it
Assay: LanthaScreen Kinase Activity Assay (TR-FRET), wild type LRRK2
Type: biochemical
Settings: class symbols; 25 μM ATP, 400 nM LRRKtide, 2.9 nM kinase, 60 min at room temperature; read-out: LRRK2 WT IC50
TEST_READOUT: IC50

O=C(Nc1ccc2[nH]nc(-c3ccoc3)c2c1)c1ccc2ncoc2c1 : 0.1 to 1 µM
Cn1ncc2c(F)c(C(=O)Nc3ccc4[nH]nc(-c5ccccc5)c4c3)c(F)cc21 : 0.1 to 1 µM
Cn1ncc2c(F)c(C(=O)Nc3ccc4[nH]nc(-c5cnn(C(F)F)c5)c4c3)c(F)cc21 : ≤ 0.1 µM
Cn1ncc2c(F)c(C(=O)Nc3ccc4[nH]nc(N5CCC5)c4c3)c(F)cc21 : 1 to 10 µM

Continue with the compound presented below.
stdin: For the compound Cn1ncc2c(F)c(C(=O)Nc3ccc4[nH]nc(C5=CCCO5)c4c3)c(F)cc21 , what IC50 is on record?
stdout: 1 to 10 µM

----------
This listing pairs compounds with measured IC50.
Target: Recombinant wild type LRRK2 protein (Homo sapiens, UniProt Q5S007)
Construct: purchased Life Technologies PR8604B
Test: LanthaScreen Kinase Activity Assay (TR-FRET), wild type LRRK2
Assay type: biochemical
Settings: class symbols; 25 μM ATP, 400 nM LRRKtide, 2.9 nM kinase, 60 min at room temperature; read-out: LRRK2 WT IC50

COc1ccc(C)cc1-c1n[nH]c2ccc(NC(=O)c3c(F)cc4c(cnn4C)c3F)cc12 : 100 to 1000 nM
Cc1cn2cncc2cc1C(=O)Nc1ccc2[nH]nc(-c3ccccc3)c2c1 : ≤ 100 nM
CCCc1n[nH]c2ccc(NC(=O)c3c(F)cc4c(cnn4C)c3F)cc12 : 100 to 1000 nM
Cc1cc2cnnn2c(C)c1C(=O)Nc1ccc2[nH]nc(Br)c2c1 : 100 to 1000 nM
Cc1nc2cncn2c(C)c1C(=O)Nc1ccc2[nH]nc(I)c2c1 : ≤ 100 nM
COc1ccncc1-c1n[nH]c2ccc(NC(=O)c3c(F)cc4c(cnn4C)c3F)cc12 : 100 to 1000 nM

stdin: Field: IC50 (Recombinant wild type LRRK2 protein (Homo sapiens, UniProt Q5S007)). Entry: Cc1cc2nn[nH]c2cc1C(=O)Nc1ccc2[nH]nc(-c3cccc(N4CCOCC4)c3)c2c1
stdout: ≤ 100 nM

stdin: Checklist item: IC50 tested on Recombinant wild type LRRK2 protein (Homo sapiens, UniProt Q5S007), entry Cn1ncc2c(F)c(C(=O)Nc3cc4c(-c5ccoc5)n[nH]c4cc3F)c(F)cc21 , value?
stdout: ≤ 100 nM

----------
Target: Recombinant wild type LRRK2 protein (Homo sapiens)
Construct: purchased Life Technologies PR8604B
Assay: LanthaScreen Kinase Activity Assay (TR-FRET), wild type LRRK2
Format: biochemical
Conditions: class symbols; 25 μM ATP, 400 nM LRRKtide, 2.9 nM kinase, 60 min at room temperature; read-out: LRRK2 WT IC50
TEST_READOUT: IC50

Cn1ncc2cc(C(=O)Nc3ccc4[nH]nc(-c5cnco5)c4c3)ncc21 : 100 to 1000 nM
Cn1ncc2c(F)c(C(=O)Nc3ccc4[nH]nc(C#N)c4c3)c(F)cc21 : 100 to 1000 nM
O=C(Nc1ccc2[nH]nc(-c3ccoc3)c2c1)c1cnc2nccn2c1 : 100 to 1000 nM
Cn1ncc2c(F)c(C(=O)Nc3ccc4[nH]nc(N5Cc6ccccc6C5)c4c3)c(F)cc21 : 100 to 1000 nM
Cn1ncc2c(F)c(C(=O)Nc3ccc4[nH]nc(-c5ccsc5)c4c3)c(F)cc21 : ≤ 100 nM
Cc1ccncc1-c1n[nH]c2ccc(NC(=O)c3c(F)cc4c(cnn4C)c3F)cc12 : 1000 to 10000 nM
O=C(Nc1ccc2[nH]nc(-c3ccoc3)c2c1)c1ccc2nsnc2c1 : 100 to 1000 nM
O=C(Nc1ccc2[nH]nc(-c3ccoc3)c2c1)c1nc2cnccc2s1 : 100 to 1000 nM

stdin: IC50 lookup needed for Cc1cc2cncn2cc1C(=O)Nc1ccc2[nH]nc(-c3ccoc3)c2c1 , thanks.
stdout: ≤ 100 nM

stdin: Which IC50 is listed for O=C(Nc1ccc2[nH]nc(-c3ccoc3)c2c1)c1ccc2snnc2c1 ?
stdout: ≤ 100 nM
